Consider the following IC50 data for SYK kinase (Homo sapiens), collected from several reports.

record.smiles	measurement.target	qualifier.symbol	IC50, µM
CC(C)(C#N)c1ccc(-c2cc3nccnc3c(OC[C@@H]3CN(C(N)=O)CCO3)n2)cc1	SYK kinase (Homo sapiens)	=	0.031
CSc1n[nH]c2nc(Nc3ccc(N4CCOCC4)cc3)nc(NCCCCN)c12	SYK kinase (Homo sapiens)	≤	0.2
C#Cc1cc(Nc2nccc(Oc3ccc(NC(=O)Nc4cc(C(C)C)nn4C)c4ccccc34)n2)cc(C(=O)NCCOCCOCCOC)c1	SYK kinase (Homo sapiens)	>	1
CC(C)(C)c1cc(NC(=O)Nc2ccc(Oc3ccnc(Nc4ccc5[nH]ncc5c4)n3)c3ccccc23)n(-c2ccc(O)cc2)n1	SYK kinase (Homo sapiens)	=	0.024
CC1(C)Oc2ccc(Nc3nc(Nc4ccc(N5CCOCC5)nc4)ncc3F)nc2NC1=O	SYK kinase (Homo sapiens)	=	0.04
COc1cc(-c2cc3nccnc3c(OC[C@@H]3CN(S(C)(=O)=O)CCO3)n2)ccc1OCCN(C)C	SYK kinase (Homo sapiens)	=	0.041

###

Consider the following IC50 data for SYK kinase (Homo sapiens), collected from several reports.
Labelling: IC50 reported below 10 nM becomes Condition met; at or above becomes Condition not met.

record.smiles	measurement.target	group.label
Cc1ccc(-n2nc(C(C)(C)C)cc2NC(=O)Nc2ccc(Oc3ccnc(Nc4cccc5[nH]ccc45)n3)c3ccccc23)cc1	SYK kinase (Homo sapiens)	Condition not met
CC(C)(C)c1cc(NC(=O)Nc2ccc(Oc3ccnc(Nc4ccc5[nH]nnc5c4)n3)c3ccccc23)n(-c2ccc(OCCN3CCOCC3)cc2)n1	SYK kinase (Homo sapiens)	Condition not met
COc1ccc(-n2nc(C(C)(C)C)cc2NC(=O)Nc2ccc(OCc3ccnc(Nc4cnccn4)c3)c3ccccc23)cc1C	SYK kinase (Homo sapiens)	Condition not met
Cn1c(=O)c(Nc2ccc(N3CCOCC3)cc2)nc2c(Cl)cc(-c3cn[nH]c3)cc21	SYK kinase (Homo sapiens)	Condition met
COCCOCCOCCNC(=O)c1cc(Nc2cc(Oc3ccc(NC(=O)Nc4cc(C(C)(C)C)cc(CNC(C)=O)c4OC)c4ccccc34)ccn2)cc(OC)c1	SYK kinase (Homo sapiens)	Condition not met
CCS(=O)(=O)N1CCC(c2ccc(-c3cc4nccnc4c(OC[C@@H]4CN(C(C)=O)CCO4)n3)cc2)CC1	SYK kinase (Homo sapiens)	Condition not met
CC(C)(C)c1cc(NC(=O)Nc2ccc(Oc3ccnc(Nc4cc(C(=O)NCCN5CCOCC5)cc(C(F)(F)F)c4)n3)c3ccccc23)n(-c2cccc(CP(C)(C)=O)c2)n1	SYK kinase (Homo sapiens)	Condition not met
COCCn1cc(Nc2nc(-c3nc4ccccc4s3)nc3cn[nH]c23)cn1	SYK kinase (Homo sapiens)	Condition met

###

Consider the following IC50 data for SYK kinase (Homo sapiens, UniProt P43405), collected from several reports.
readout.label: IC50

molecule	result
CC1(C)C(=O)Nc2cc(Nc3nc4c(NCC5CCNCC5)nccn4n3)ccc21	< 100 nM
Cc1cc2cc(Nc3nccc(Oc4ccc(NC(=O)Nc5cc(C(C)(C)C)nn5-c5ccc(OCCN6CCOCC6)cc5)c5ccccc45)n3)ccc2[nH]1	19 nM
CO[C@H]1CNc2cc(Nc3ncc(C(N)=O)c(NC4C5CC6CC4CC(O)(C6)C5)n3)ccc2OC1 (stereo partly shown)	10 to 100 nM
COc1c(NC(=O)Nc2ccc(Oc3ccnc(Nc4cnccn4)c3)c3ccccc23)cc(C(C)(C)C)cc1P(C)(C)=O	114 nM
COc1cc(-c2cc3nccc(-c4cccc(C(=O)N[C@@H]5CCCC[C@@H]5NS(C)(=O)=O)c4)c3o2)cc(OC)c1OC	3000 to 50000 nM
COCCOCCOCCNC(=O)c1cc(Nc2cc(Oc3ccc(NC(=O)Nc4cc(C(C)(C)C)cc([S+](C)[O-])c4OC)c4ccccc34)ccn2)cc(OC)c1 (stereo not shown)	> 1230 nM
CC(C)n1cc(Nc2nc3ccc(S(C)(=O)=O)cc3c3cn[nH]c23)cn1	< 10 nM
Cc1ccc(-n2nc(C(C)(C)C)cc2NC(=O)Nc2ccc(Oc3ccnc(Nc4ccc5c(cnn5C)c4)n3)c3ccccc23)cc1	180 nM
Cc1ccccc1C(=O)c1c[nH]c2ncc(-c3cccc(N)c3)cc12	≤ 10000 nM
Cn1c(=O)c(Nc2ccc(N3CCOCC3)cc2)nc2cc(Cl)c(-c3cn[nH]c3)cc21	30 nM
CC(=O)N1CCO[C@H](COc2nc(-c3ccc(N(C)C)c(Cl)c3)cc3nccnc23)C1	52 nM
CC(=O)Nc1cccc(Nc2nc3ccc(S(C)(=O)=O)cc3c3c[nH]nc23)c1	100 to 1000 nM
N#Cc1c[nH]c2c(Nc3nc(N[C@@H]4CCCC[C@@H]4N)cc4cn[nH]c(=O)c34)cccc12	8 nM
Cn1cc(-c2nccn3nc(Nc4ccc5c(c4)NC(=O)CC5(C)C)nc23)cn1	< 100 nM
CC1(C)C(=O)Nc2cc(Nc3nc4c(N5CC[C@H](O)C5)nccn4n3)ccc21	100 to 300 nM
Clc1cc(-c2cc3nccnc3c(O[C@@H]3CCOC3)n2)ccc1N1CCOCC1	136 nM
COCCOCCOCCS(=O)(=O)c1cc(Nc2cc(Oc3ccc(NC(=O)Nc4cc(C(C)(C)C)cc(NS(C)(=O)=O)c4OC)c4ccccc34)ccn2)cc(OC)c1	1160 nM
FC(F)(F)c1cccc(Nc2nc3c(NCCCN4CCOCC4)nccn3n2)c1	3000 to 50000 nM
CC(C)C1(C(C)C)OC(=O)Nc2cc(Nc3nc4c(-c5cnn(C)c5)nccn4n3)ccc21	100 to 300 nM
CC(C)C(C)n1cc(Nc2nc(-c3ccc4cn[nH]c4c3)nc3cn[nH]c23)cn1 (stereo not shown)	10 to 100 nM
Cn1ccnc1Sc1ccc(Nc2nc3c(Cl)nccn3n2)cc1Cl	3000 to 50000 nM
Cc1cc(C)cc(Nc2nccn3nc(Nc4ccc5cnn(Cc6ccccc6)c5c4)nc23)c1	3000 to 50000 nM
c1ccc(Nc2nc3c(-c4cccnc4)nccn3n2)cc1	3000 to 50000 nM
CN(C)c1ccc(-c2cc3nccnc3c(OC[C@@H]3CN(S(N)(=O)=O)CCO3)n2)cc1	19 nM
Cc1ccc(-n2nc(C(C)(C)C)cc2NC(=O)Nc2ccc(OCc3ccnc(Nc4cnc(CN)cn4)c3)c3ccccc23)cc1	> 15900 nM
CC(C)(C)N1CCC(n2cc(Nc3nc(-c4ccoc4)nc4cn[nH]c34)cn2)CC1	< 10 nM
Cc1cccc(Nc2nc3c(-c4cccnc4)nccn3n2)c1	300 to 3000 nM
CS(=O)(=O)N1CCN(c2ccc(-c3cc4nccnc4c(OC[C@@H]4CN(S(C)(=O)=O)CCO4)n3)cc2)CC1	18 nM
CC(=O)N1CCO[C@H](COc2nc(-c3cc(C)c(N(C)C)c(C)c3)cc3nccnc23)C1	151 nM
COc1cc(Nc2nc(-c3cnc4c(c3)NCCO4)cn3ccnc23)ccc1N1CCN(C2COC2)C(C)(C)C1	10 nM
c1cc(N2CCOCC2)ccc1Nc1nc(-c2cn[nH]c2)nc2cn[nH]c12	10 to 100 nM

###

Consider the following IC50 data for SYK kinase (Homo sapiens, UniProt P43405), collected from several reports.

compound	measurement.target	IC50
Cn1c(=O)c(Nc2ccc(N3CCOCC3)cc2)nc2ccc(-c3ncc[nH]3)cc21	SYK kinase (Homo sapiens, UniProt P43405)	461 nM
c1cnc2c(O[C@@H]3CCOC3)nc(-c3ccc(N4CCOCC4)cc3)cc2n1	SYK kinase (Homo sapiens, UniProt P43405)	30 nM
Clc1nccn2nc(Nc3ccccc3)nc12	SYK kinase (Homo sapiens, UniProt P43405)	3000 to 50000 nM
O=C(Nc1n[nH]c2c1CCCn1cc(C(=O)NC3CCCC3)cc1-2)c1cccnc1	SYK kinase (Homo sapiens, UniProt P43405)	1630 nM
OCc1cccc(-c2ccnc3[nH]cc(Sc4ccccn4)c23)c1	SYK kinase (Homo sapiens, UniProt P43405)	≤ 10000 nM
CC(=O)N1C[C@H](O)C[C@@H]1c1nc(-c2ccc(N3CCOC(C)C3)cc2)c2cnc3[nH]ccc3n12 (some centres unmarked)	SYK kinase (Homo sapiens, UniProt P43405)	< 10 nM
Cn1ccnc1Sc1ccc(Nc2nc3c(Nc4ccccc4)nccn3n2)cc1Cl	SYK kinase (Homo sapiens, UniProt P43405)	3000 to 50000 nM
COc1cc(OC)cc(-c2nccn3nc(Nc4ccc(Sc5nccn5C)c(Cl)c4)nc23)c1	SYK kinase (Homo sapiens, UniProt P43405)	3000 to 50000 nM
COc1ccc(Nc2nc(-c3cccc(C(=O)Nc4ccc(-c5cnco5)cc4)c3)nc3cn[nH]c23)cc1OC	SYK kinase (Homo sapiens, UniProt P43405)	100 to 1000 nM
CCc1ccnc(Nc2cccc(-c3cnc(N4CCNC(=O)C4C(C)C)o3)c2)n1 (centres unmarked)	SYK kinase (Homo sapiens, UniProt P43405)	≤ 100 nM
Nc1cccc(Oc2cccc(Nc3nccc(-c4nccs4)n3)c2)c1	SYK kinase (Homo sapiens, UniProt P43405)	< 500 nM
CC(=O)N1CCN(c2ccc(Nc3nc(-c4cccc(N)c4)nc4cn[nH]c34)cc2)CC1	SYK kinase (Homo sapiens, UniProt P43405)	100 to 1000 nM
CN1CCOC(COc2nc(-c3ccc(C(C)(C)O)cc3)cc3nccnc23)C1=O (centres unmarked)	SYK kinase (Homo sapiens, UniProt P43405)	115 nM
COCC(C)(C)n1cc(Nc2nc(-c3ccoc3)nc3cn[nH]c23)cn1	SYK kinase (Homo sapiens, UniProt P43405)	100 to 1000 nM
COc1cc(-c2cc3nccc(-c4cccc(C(=O)NCC5CCCN5)c4)c3o2)cc(OC)c1OC (centres unmarked)	SYK kinase (Homo sapiens, UniProt P43405)	< 300 nM
Cn1c(=O)c(Nc2ccc(N3CCC[C@@H](C(=O)O)C3)cn2)cc2c(F)c(-c3cc[nH]n3)ccc21	SYK kinase (Homo sapiens, UniProt P43405)	26 nM
COc1cc(-c2cc3nccc(-c4cccc(C(=O)N[C@H]5C[C@@H](N)C5)c4)c3o2)cc(OC)c1OC	SYK kinase (Homo sapiens, UniProt P43405)	300 to 3000 nM
